B1: KLHL14 (parent)
chain: CAVLDDSIYLVGGYSWSMGAYKSS

variants of: B1; experiment: protein stability index of a GFP-peptide fusion (GPS, HEK-293T) (PSI 1-6); higher = more stable; settings: c terminus: a fixed tail appended;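 also: lentivirally expressed fusions sorted by FACS into six bins by GFP to DsRed ratio, PSI derived from sequencing read proportions per bin multiplied by bin number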
Values of protein stability index greater than or equal to 2 map to rule met; values below map to rule not met.

VARIANT_IDENTIFIER	ASSIGNED_CATEGORY
G12Y	rule not met
G12F	rule met
V3F	rule met
Y9S	rule not met
S17Q	rule met
D5G	rule not met
S15T	rule met
Y14K	rule not met
S23I	rule met
I8R	rule not met
L4N	rule met
S23N	rule not met
K22I	rule met
L4T	rule met
S7M	rule met
V3E	rule met
G13C	rule met
I8S	rule not met
A2E	rule met
K22H	rule met
S24F	rule met
W16V	rule not met
Y14G	rule not met
S15G	rule met
Y21A	rule met
V11L	rule not met
K22P	rule not met
G12C	rule met
S17K	rule met
I8F	rule met
D5W	rule met
S17N	rule not met
A20D	rule met
I8T	rule met
V11I	rule met
V3W	rule met
Y14R	rule not met
A2R	rule not met
V11W	rule not met
Y14V	rule met
C1Q	rule not met
S15F	rule met
G12N	rule met
D5M	rule met
G19N	rule met
S15Q	rule met
S24Q	rule met
S23P	rule not met
D6S	rule met
S17I	rule not met
G19Q	rule not met
M18Q	rule met
Y9L	rule met
K22D	rule met
Y14F	rule met
S23K	rule met
G19L	rule met
Y14M	rule met
S7T	rule not met
Y14A	rule not met
V11D	rule not met
A20P	rule not met
L10C	rule met
Y9H	rule met
K22Q	rule not met
M18G	rule not met
C1M	rule not met
C1A	rule not met
G12L	rule met
M18E	rule met
G13K	rule not met
